B1: tRNA (parent)
chain: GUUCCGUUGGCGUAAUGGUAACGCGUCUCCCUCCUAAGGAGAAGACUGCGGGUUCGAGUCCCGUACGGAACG

# Variants of: B1
# measurement.protocol: yeast fitness relative to wild type (ratio to wild type); higher = fitter; tRNA-Arg(CCU), competitive growth, 37 C, YPD
Fewer inactive variants are shown than the library holds.
Measured yeast fitness of individual entries
readout.kind: yeast fitness

In [3]: df
Out[3]:
            mutations  endpoint_result
0      C62A A69G A70G            0.614
1       C5G C31A A45U            0.584
2  U2A C11G A57U C66U            0.588
